Source: the Deep4Chem optical property database

assay: solvent given as SMILES; settings: in c1ccccc1
hey, just use Satisfied if measured fluorescence lifetime is less than 2 ns, otherwise Not satisfied

Examples from the recorded data:
{"Molecule": "CNc1ccc2c(c1)C(=O)c1ccccc1-2", "Class Name": "Satisfied"}
{"Molecule": "CCOC(=O)CN(CC(=O)OCC)c1ccc(-c2cc(-c3ccccn3)nc(-c3ccccn3)c2)cc1", "Class Name": "Satisfied"}
{"Molecule": "Nc1ccc2c(c1)C(=O)c1ccccc1-2", "Class Name": "Satisfied"}
{"Molecule": "O=c1oc2ccc3ccc(O)cc3c2nc1-c1ccccc1", "Class Name": "Not satisfied"}
{"Molecule": "O=C1OC(=O)c2ccc(N(c3ccccc3)c3c4ccccc4cc4ccccc34)c3cccc1c23", "Class Name": "Not satisfied"}

Enquiry: is_below(fluorescence lifetime, 2 ns) for `O=C1/C(=C2\Sc3ccccc3C2=O)Sc2ccccc21` ?
Return: Not satisfied

Enquiry: is_below(fluorescence lifetime, 2 ns) for `Cc1ccc(-c2cc(-c3ccccc3Cl)c3c(N)nc(N4CCCC4)c(C#N)c3n2)cc1` ?
Return: Not satisfied

Enquiry: is_below(fluorescence lifetime, 2 ns) for CC(C)(C)C1Nc2ccccc2C(=O)N1Cc1ccccc1 (configuration not stated) ?
Return: Not satisfied

Enquiry: is_below(fluorescence lifetime, 2 ns) for `O=C1OC(=O)c2ccc(N(c3ccccc3)c3ccc4ccccc4c3)c3cccc1c23` ?
Return: Not satisfied

Enquiry: is_below(fluorescence lifetime, 2 ns) for `COc1ccc2c(=O)c3c([nH]c2c1)-c1cc(Cl)ccc1NC3(C)C` ?
Return: Not satisfied

----------
assay: solvent given as SMILES; conditions: in CCOC(C)=O
hey, just use true if measured fluorescence lifetime is less than 3 ns, otherwise false

{"Compound": "CCC1=C(C)C2=Cc3cc(I)cn3[B-](F)(F)[N+]2=C1C", "Class Name": "true"}

Now for a further compound.
Enquiry: is_below(fluorescence lifetime, 3 ns) for Cc1ccc(C2CC(c3ccc(O)cc3)=NN2c2ccc(S(N)(=O)=O)cc2)cc1 (stereo not drawn) ?
Return: true

----------
test: solvent given as SMILES; settings: in C1CCCCC1
Quick rule for you: fluorescence lifetime at 2 ns or higher means Satisfied, lower means Not satisfied.

{"Compound": "Cc1cc(C)c(B(c2c(C)cc(C)cc2C)c2cc3ccc4ccccc4c3c3c2cc(N(C)C)c2ccccc23)c(C)c1", "Class Name": "Satisfied"}
{"Compound": "Oc1cccc2ccccc12", "Class Name": "Satisfied"}
{"Compound": "Cc1cc2c(o1)c(C)cc1ccc(=O)oc12", "Class Name": "Not satisfied"}
{"Compound": "COC(=O)c1ccc(-c2nc3ccc(N(C)C)cc3s2)cc1", "Class Name": "Satisfied"}
{"Compound": "Nc1ccc2c(c1)Cc1ccccc1-2", "Class Name": "Satisfied"}
{"Compound": "Nc1ccc2c(C(F)(F)F)cc(=O)oc2c1", "Class Name": "Not satisfied"}
{"Compound": "CCN(CC)c1ccc2nc3c4ccccc4c(=O)cc-3oc2c1", "Class Name": "Satisfied"}
{"Compound": "O=P1(c2ccccc2)C(c2cc(C(F)(F)F)cc(C(F)(F)F)c2)=Cc2c3ccc4cccc5ccc(c6cc(-c7ccccc7)n1c26)c3c45 (stereo unspecified)", "Class Name": "Not satisfied"}
{"Compound": "COC(=O)c1ccc(C#Cc2ccc(N(C)C)cc2)cc1", "Class Name": "Not satisfied"}
{"Compound": "COc1cc(OC)c2c(c1)C(=O)c1cc(OC)cc(OC)c1-2", "Class Name": "Not satisfied"}

Now for a further compound.
Enquiry: Record `Cc1ccc(C2=C3C=C(I)C=[N+]3[B-](F)(F)n3c2cc(I)c3I)cc1` ; criterion: fluorescence lifetime no lower than 2 ns. Met?
Return: Not satisfied

----------
Assignment: determine reported fluorescence lifetime for the given compounds.
test: solvent given as SMILES; details: in CCCCCC
One number for each entry, in ns.

{"Compound": "CC1=CC(C)=[N+]2C1=Cc1c(C)cc(C)n1[B-]2(F)F", "Measurement Name": "fluorescence lifetime", "Output Unit": "ns", "Test Result": 5.85}
{"Compound": "c1ccc(N(c2ccccc2)c2ccc(-c3cccc4nc5ccccc5cc34)cc2)cc1", "Measurement Name": "fluorescence lifetime", "Output Unit": "ns", "Test Result": 1.95}
{"Compound": "COC(C)CC1=N/C(=C\\c2cccc(N(C)C)c2)C(=O)N1C (stereo not given)", "Measurement Name": "fluorescence lifetime", "Output Unit": "ns", "Test Result": 22.4}
{"Compound": "CC(C)[Si](C#Cc1c2ccccc2c(C#C[Si](C(C)C)(C(C)C)C(C)C)c2nc3cc4c(cc3nc12)C1c2ccccc2C4c2ccccc21)(C(C)C)C(C)C", "Measurement Name": "fluorescence lifetime", "Output Unit": "ns", "Test Result": 13.3}

Enquiry: Note down fluorescence lifetime recorded for `Cc1cc(C)n2c1C=C1c3ccccc3C(c3ccc[nH]3)=[N+]1[B-]2(F)F`
Return: 7.93

----------
experiment: solvent given as SMILES; conditions: in ClCCl
Assignment: determine reported log10 fluorescence lifetime for the given compounds.
# log10 transformed; quantity=fluorescence lifetime; unit=ns

Here is how some compounds turned out for log10 fluorescence lifetime.
{"Compound": "Cc1cc(C)n2c1C=C1c3ccccc3C(c3cccn3C)=[N+]1[B-]2(F)F", "log10 fluorescence lifetime": 0.84}
{"Compound": "COc1ccc(C#Cc2ccc(C#N)cc2)cc1OC", "log10 fluorescence lifetime": 0.10}
{"Compound": "CN(C)c1ccc(-c2c(/C=C3/C=Cc4ccccc4N3Cc3ccccc3)c(=O)c2=O)cc1", "log10 fluorescence lifetime": -0.89}
{"Compound": "COc1ccc(-c2cc3c(s2)c(C(C)=O)cc(=O)n3Cc2ccccc2)cc1", "log10 fluorescence lifetime": 0.29}

Quick one: give me log10 fluorescence lifetime for each item below, same order please.
1. COc1ccc2c(c1)c1cc(OC)ccc1c1c2c2c(C(=O)NC(C)(C)C)ccc(C(=O)NC(C)(C)C)c2c2c3ccc(OC)cc3c3cc(OC)ccc3c21
2. CCCCCCCCCCCCN1C(=O)c2c(c3ccc4cc(-c5ccccc5)c(OC)cc4c3c3c2ccc2cc(-c4ccccc4)c(OC)cc23)C1=O
3. O=[N+]([O-])c1ccc(C#Cc2ccc3ccc(C#Cc4ccc([N+](=O)[O-])cc4)cc3c2)cc1

Return:
1. -0.07
2. 0.79
3. -0.57

Quick one: give me log10 fluorescence lifetime for each item below, same order please.
1. CCCCCCCCOc1ccc2c3cccc4c(OCCCCCCCC)ccc(c5cccc1c52)c43
2. O=[N+]([O-])c1ccc(/C2=C3N=C(C(c4ccccc4)=C/3c3ccccc3)/C(c3ccc([N+](=O)[O-])cc3)=c3\[nH]/c(c(-c4ccccc4)c3-c3ccccc3)=C(/c3ccc([N+](=O)[O-])cc3)C3=N/C(=C(/c4ccc([N+](=O)[O-])cc4)c4[nH]c2c(-c2ccccc2)c4-c2ccccc2)C(c2ccccc2)=C3c2ccccc2)cc1
3. CCCCCCCCCCCCOc1cc2cc(N(C)C)ccc2cc1C=O
4. CN(C)c1ccc(C2=Cc3ccccc3P2(=O)c2ccccc2)cc1 (configuration not stated)
5. CCN(CC)c1ccc2c(-c3ccccc3C(=O)O)c3c([o+]c2c1)/C(=C/c1ccc(N(C)C)cc1)CCC3
6. CC[B-]1(CC)c2cccc3cc4ccccc4c(c23)-c2cccc(C)[n+]21
7. CC1=CC(C)=[N+]2C1=C(C)c1cccn1[B-]2(F)F

Return:
[0.62, -0.40, 0.65, 0.79, -0.60, 0.61, 0.77]

Quick one: give me log10 fluorescence lifetime for each item below, same order please.
1. COc1ccc(C#CC2=C3CCc4ccccc4C3=[O+][B-](F)(F)O2)cc1
2. Cc1csc2[n+]1[B-](F)(F)n1c(c3cccc4cccc1c43)=N2
3. COC(=O)c1cc(=O)n(Cc2ccccc2)c2cc(-c3ccc(N(C)C)cc3)sc12

Return:
[0.17, 0.81, 0.27]

----------
assay: solvent given as SMILES; details: in C1CCCCC1
Quick rule for you: fluorescence lifetime at 0.8 ns or higher means T, lower means F.

Examples from the recorded data:
{"Smiles String": "Cc1cc(C)c(C)c(-c2ccc3cc(C)c(=O)oc3c2)c1C", "Class Name": "T"}
{"Smiles String": "CN(C)c1ccc(/C=C/c2ccc(-c3nc(C#N)c(C#N)n3C)cc2)cc1", "Class Name": "F"}

Enquiry: Record `OB(O)c1ccc(-c2ccc(N(c3ccccc3)c3ccccc3)cc2)cc1` ; criterion: fluorescence lifetime no lower than 0.8 ns. Met?
Return: T

Enquiry: Record `CNc1ccc2c(c1)C(=O)c1ccccc1-2` ; criterion: fluorescence lifetime no lower than 0.8 ns. Met?
Return: T

Enquiry: Record `c1ccc(-c2nn(-c3ccccc3)c3nc4ccccc4cc23)cc1` ; criterion: fluorescence lifetime no lower than 0.8 ns. Met?
Return: T

Enquiry: Record `CN(C)c1ccc(/C=C/C=C/C=C/c2ccc(B(O)O)cc2)cc1` ; criterion: fluorescence lifetime no lower than 0.8 ns. Met?
Return: F

Enquiry: Record `Cc1ccccc1[B-]1(c2ccccc2C)n2nc(C(F)(F)F)cc2-c2c3ccccc3cc[n+]21` ; criterion: fluorescence lifetime no lower than 0.8 ns. Met?
Return: F

Enquiry: Record `COc1ccc(-c2ccc(-c3ccc(C#N)s3)s2)cc1` ; criterion: fluorescence lifetime no lower than 0.8 ns. Met?
Return: F

Enquiry: Record `c1ccc2c(-c3ccc4sc5ccc(-c6c7ccccc7cc7ccccc67)cc5c4c3)c3ccccc3cc2c1` ; criterion: fluorescence lifetime no lower than 0.8 ns. Met?
Return: T

Enquiry: Record `Nc1ccc2cc3ccccc3cc2c1` ; criterion: fluorescence lifetime no lower than 0.8 ns. Met?
Return: T
